# System: Alternaria solani
# Assay Details: In vivo preventive test on Alternaria solani (tomato)
# Condition Label: 500 ppm of active ingredient, evaluated 7 days after inoculation
# Description: One day after this treatment, the plants are inoculated with an aqueous spore suspension of Alternaria solani.
Measurement Kind: Efficacy (%)
Expressed in %, but write only the number.

Name the recorded Efficacy for CC(Cc1ccccc1F)N(C(=O)c1c(C(F)F)nn(C)c1Cl)C1CC1 (stereo not drawn) .
95

Fill in the blank: the reported Efficacy of `Cc1scc(CCNC(=O)c2c(C(F)F)nn(C)c2F)c1C` is ____.
100

Can you look up the measured Efficacy of CC(Cc1ccc(Cl)cc1Cl)NC(=O)c1c(C(F)F)nn(C)c1F (stereo not drawn) for me?
100

Could you tell me which Efficacy is on file for `Cn1nc(C(F)F)c(C(=O)NCCc2cc(Cl)ccc2Cl)c1F` ?
95

// query Efficacy value for entry `CN(CCc1ccc(F)cc1)C(=O)c1c(C(F)F)nn(C)c1F`
100

Quick one: Efficacy for CC(Cc1c(F)cccc1Cl)N(C(=O)c1c(C(F)F)nn(C)c1F)C1CC1 (stereo not drawn) ?
100

Bench note: what Efficacy did CC(Cc1cccc(Cl)c1)NC(=O)c1c(C(F)F)nn(C)c1F (stereo not drawn) show?
100

What does the record list as Efficacy for `Cn1nc(C(F)F)c(C(=O)NCCc2ccccc2C(F)(F)F)c1Cl` ?
95

Give its Efficacy value. Item: `Cn1nc(C(F)F)c(C(=O)N(C[Si](C)(C)c2ccccc2)C2CCCCC2)c1F`
90

====

# Test system: Alternaria solani
# Assay Details: In vivo preventive test on Alternaria solani (tomato)
# Condition Label: 500 ppm of active ingredient, evaluated 7 days after inoculation
Measurement Kind: Efficacy (%)
Give the number; % is assumed, so skip it.

So what does the record say about Efficacy for Cn1nc(C(F)F)c(C(=O)NCCc2cc(Cl)cc(Cl)c2)c1F [Example 103] ?
90

Reported Efficacy for CC(Cc1ncc(C(F)(F)F)cc1Cl)NC(=O)c1c(C(F)F)nn(C)c1F (centres unmarked) [Example 190] : what is it?
100

For the compound shown here, CC(Cc1c(Cl)cccc1Cl)N(C(=O)c1c(C(F)F)nn(C)c1F)C1CC1 (centres unmarked) [Example 115] , give the reported Efficacy.
100

Which Efficacy is reported for this compound? CC(c1ccccc1Cl)C(C)N(C(=S)c1c(C(F)F)nn(C)c1F)C1CC1 (centres unmarked) [Example 43]
90

Look at this compound and give its reported Efficacy. CC(CNC(=O)c1c(C(F)F)nn(C)c1F)c1cc(Cl)cc(Cl)c1 (centres unmarked) [Example 111]
95

====

# System: aflatoxines production
# Assay Details: microbe, parasite or virus in culture
# Format: cell-based, Aspergillus parasiticus
# Condition Label: 50 μM
Measurement Kind: % Inhibition of Aflatoxin at 50 μM (%)
Use % as the unit, but write only the number.

Query (compound): CC(Cc1ccc(Oc2ccccc2)cc1)NC(=O)c1c(C(F)F)nn(C)c1Cl (centres unmarked) [Example 154] ; field requested: % Inhibition of Aflatoxin at 50 μM
99

Value lookup for % Inhibition of Aflatoxin at 50 μM; key = CCC(NC(=O)c1c(C(F)F)nn(C)c1F)C(OC)c1ccc(Cl)cc1Cl (centres unmarked) [Example 77]
100

Look up % Inhibition of Aflatoxin at 50 μM: CC(c1ccccc1Cl)C(C)N(C(=S)c1c(C(F)F)nn(C)c1F)C1CC1 (centres unmarked) [Example 43]
100

Need % Inhibition of Aflatoxin at 50 μM of CC(Cc1ncc(C(F)(F)F)cc1Cl)N(C(=O)c1c(C(F)F)nn(C)c1Cl)C1CC1 (centres unmarked) [Example 189] , thanks.
100

Quick check: % Inhibition of Aflatoxin at 50 μM of CN(CCc1ccccc1C(F)(F)F)C(=O)c1c(C(F)F)nn(C)c1F [Example 123] ?
100

Consider the compound CN(CC(=O)c1ccc(Cl)cc1)C(=O)c1c(C(F)F)nn(C)c1F [Example 61] and give its measured % Inhibition of Aflatoxin at 50 μM.
100

Look up % Inhibition of Aflatoxin at 50 μM for this compound: Cn1nc(C(F)F)c(C(=O)N(C2CC2)C2CCCCC2(C)c2ccccc2)c1F (mixture of isomers) [Example 218]
100

Report % Inhibition of Aflatoxin at 50 μM for Cn1nc(C(F)F)c(C(=O)NCCc2ccc(Cl)cc2Cl)c1Cl [Example 66] please.
100

# % Inhibition of Aflatoxin at 50 μM lookup, item Cn1nc(C(F)F)c(C(=O)NC[Si](C)(C)c2ccc(Cl)cc2Cl)c1F [Example 240]
100

Which measured % Inhibition of Aflatoxin at 50 μM value corresponds to CC(Cc1ccc(Cl)cc1Cl)NC(=O)c1c(C(F)F)nn(C)c1Cl (centres unmarked) [Example 68] ?
100

Name the recorded % Inhibition of Aflatoxin at 50 μM for CCC(NC(=O)c1c(C(F)F)nn(C)c1Cl)C(OC)c1ccc(Cl)cc1Cl (mixture of isomers) [Example 76] .
100

Value lookup for % Inhibition of Aflatoxin at 50 μM; key = Cn1nc(C(F)F)c(C(=O)NC2CC2c2ccc(Cl)cc2)c1F (centres unmarked) [Example 224]
100

Could you share which % Inhibition of Aflatoxin at 50 μM value was measured for Cc1cc(Br)ccc1C(=O)C(C)(C)NC(=O)c1c(C(F)F)nn(C)c1F [Example 133] ?
100

Returns the measured % Inhibition of Aflatoxin at 50 μM for the input compound. Input: CC(Cc1ccccc1Cl)NC(=O)c1c(C(F)F)nn(C)c1Cl (centres unmarked) [Example 33]
100

Entry CN(CCc1ccc(F)cc1)C(=O)c1c(C(F)F)nn(C)c1Cl [Example 24] has what % Inhibition of Aflatoxin at 50 μM?
100

Find the recorded % Inhibition of Aflatoxin at 50 μM belonging to CC(CNC(=O)c1c(C(F)F)nn(C)c1Cl)c1cccc(Cl)c1 (centres unmarked) [Example 52] and report it.
100

Quick one: % Inhibition of Aflatoxin at 50 μM for Cn1nc(C(F)F)c(C(=O)NCCc2c(F)c(F)nc(F)c2F)c1F [Example 208] ?
99

Fill in: % Inhibition of Aflatoxin at 50 μM of Cn1nc(C(F)F)c(C(=O)NCC(C)(C)c2ccc(Cl)cc2Cl)c1F [Example 87] is ___
100

Query: % Inhibition of Aflatoxin at 50 μM; subject: Cn1nc(C(F)F)c(C(=O)N(C[Si](C)(C)c2cc(Cl)cc(Cl)c2)C2CC2)c1F [Example 242]
100

Given the compound CC(CNC(=O)c1c(C(F)F)nn(C)c1F)c1cc(Cl)ccc1Cl (centres unmarked) [Example 97] , what is its reported % Inhibition of Aflatoxin at 50 μM?
100

Sample Cn1nc(C(F)F)c(C(=O)NCC(c2cccs2)C(F)(F)F)c1F (centres unmarked) [Example 161] — what was its % Inhibition of Aflatoxin at 50 μM?
100

Endpoint output: % Inhibition of Aflatoxin at 50 μM of CC(Cc1c(Cl)cccc1Cl)N(C(=O)c1c(C(F)F)nn(C)c1F)C1CC1 (centres unmarked) [Example 115] . Value?
100

Quick check: % Inhibition of Aflatoxin at 50 μM of CC(CN(C)C(=O)c1c(C(F)F)nn(C)c1Cl)c1ccncc1 (centres unmarked) [Example 207] ?
99

So what does the record say about % Inhibition of Aflatoxin at 50 μM for CC(CNC(=O)c1c(C(F)F)nn(C)c1Cl)c1ccc(Cl)cc1Cl (centres unmarked) [Example 85] ?
100

If you can, please state the reported % Inhibition of Aflatoxin at 50 μM value of Cn1nc(C(F)F)c(C(=O)N(C[Si](C)(C)c2cccc(Cl)c2)C2CC2)c1F [Example 235] .
100

% Inhibition of Aflatoxin at 50 μM lookup needed for CC(Cc1ccccc1F)N(C(=O)c1c(C(F)F)nn(C)c1Cl)C1CC1 (centres unmarked) [Example 20] , thanks.
86

Param item = CC(CNC(=O)c1c(C(F)F)nn(C)c1Cl)c1cc(Cl)ccc1Cl (centres unmarked) [Example 98] ; retrieve measured % Inhibition of Aflatoxin at 50 μM.
100

Which % Inhibition of Aflatoxin at 50 μM value belongs to COC(CNC(=O)c1c(C(F)F)nn(C)c1F)c1cc(Cl)cc(Cl)c1 (centres unmarked) [Example 107] ?
98

Which measured % Inhibition of Aflatoxin at 50 μM value corresponds to CC(Cc1c(F)cccc1Cl)N(C(=O)c1c(C(F)F)nn(C)c1Cl)C1CC1 (centres unmarked) [Example 119] ?
95

Which % Inhibition of Aflatoxin at 50 μM reading was recorded for the compound Cn1nc(C(F)F)c(C(=O)NCC(C)(C)c2ccc(Cl)cc2Cl)c1Cl [Example 88] ?
100

# input compound: CC(CNC(=O)c1c(C(F)F)nn(C)c1F)c1c(F)cccc1F (centres unmarked) [Example 30] ; wanted: its % Inhibition of Aflatoxin at 50 μM
100

Which % Inhibition of Aflatoxin at 50 μM value belongs to CN(CCc1cc(Cl)ccc1Cl)C(=S)c1c(C(F)F)nn(C)c1F [Example 96] ?
100

% Inhibition of Aflatoxin at 50 μM lookup needed for CCOC(c1ccc(Cl)cc1Cl)C(C)NC(=O)c1c(C(F)F)nn(C)c1F (mixture of isomers) [Example 83] , thanks.
100

Entry CCN(C(=O)c1c(C(F)F)nn(C)c1F)C(C)C(=O)c1ccccc1 (centres unmarked) [Example 17] has what % Inhibition of Aflatoxin at 50 μM?
100

So what's the measured % Inhibition of Aflatoxin at 50 μM for this one? CC(CN(C(=S)c1c(C(F)F)nn(C)c1F)C1CC1)c1ccccc1 (centres unmarked) [Example 15]
100
